target: PAR-2 (Homo sapiens); test: PAR-2 agonist-mediated intracellular calcium dynamics assay in HCT-15 cells (modified method of Howthorne et al.); settings: HCT-15 cells endogenously expressing PAR-2; Ca2+ sensitive fluorescent dye; 2.5 mM probenecid; serum-free RPMI
Sequence (P55085 26-397): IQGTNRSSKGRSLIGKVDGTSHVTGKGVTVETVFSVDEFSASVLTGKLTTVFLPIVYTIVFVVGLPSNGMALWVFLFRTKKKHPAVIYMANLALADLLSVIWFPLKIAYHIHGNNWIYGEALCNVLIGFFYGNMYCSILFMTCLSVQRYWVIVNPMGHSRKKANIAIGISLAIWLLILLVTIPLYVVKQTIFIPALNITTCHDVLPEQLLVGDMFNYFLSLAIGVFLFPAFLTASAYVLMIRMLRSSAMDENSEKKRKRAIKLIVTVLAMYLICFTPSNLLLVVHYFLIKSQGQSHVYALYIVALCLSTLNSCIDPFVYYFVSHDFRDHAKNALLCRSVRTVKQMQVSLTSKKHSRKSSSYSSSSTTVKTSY
Where a name gives a salt, the structure may show the parent alone.
// EC50 lookup, one value per entry
Your answer should be a plain number; it is taken to be in µM.

> print(dat)
                                   compound  measured.property  test.result
1  O=C(CNC(=O)[C@H](CC1CCCCC1)NC(=O)c1ccco1)NCC(=O)N[C@@H](CCCN1CCCCC1)C(=O)NCc1ccccc1 [Example 1]               EC50          2.3

get_value(item= O=C(CNC(=O)[C@H](CC1CCCCC1)NC(=O)c1ccco1)NCC(=O)N[C@@H](CCCN1CCCCC1)C(=O)NCCN1CCCCC1 [Example 2, dihydrochloride] , readout=EC50) returns 4.1
